Biological target: Adenosylhomocysteinase (Oryctolagus cuniculus)
Experiment: Inhibition of S-adenosyl-homocysteine (AdoHcy)hydrolase from rabbit erythrocytes
readout: pIC50
# pIC50: negative log10 of molar concentration; output just the value

Item Nc1ncnc2c1ncn2C1C(O)C(O)C(CO)C1O (stereo unspecified) has what recorded pIC50? 4.55

====

Molecular target: Adenosylhomocysteinase (Oryctolagus cuniculus)
Test: Inhibition of S-adenosyl-homocysteine (AdoHcy)hydrolase from rabbit erythrocytes
readout: pIC50
# pIC50: negative log10 of molar concentration; output just the value

Missing value: pIC50, Adenosylhomocysteinase (Oryctolagus cuniculus), entry Nc1ncnc2c1ncn2[C@@H](C=O)O[C@@H](C=O)CO . Fill in? 7.40
